Every entry's value here was drawn from PubChem BioAssay AID1963974.

Each item that follows carries a reported viability, T/C.
Tested on: 648629-189-R-J1-PDC spheroids with HUVEC/MSC, viability
Experiment: Anticancer human tumor 648629-189-R-J1-PDC patient-derived bladder carcinoma cell line growth inhibition [PI3K]
Details: second compound 3.16 µM; first compound 0.0316 µM; stronger effect = lower value
# output: bare number, implied unit %

>>> value_observed("Cn1nccc1Nc1nccc(-c2ccn(C(CO)c3ccc(Cl)c(F)c3)c(=O)c2)n1 (stereo unspecified) + CC(Nc1ncnc2nc[nH]c12)c1cc2cccc(Cl)c2c(=O)n1-c1ccccc1")
88.5

Entry CC(C)n1nc(-c2ccc3oc(N)nc3c2)c2c(N)ncnc21 + Cc1nc(NC(=O)N2CCCC2C(N)=O)sc1-c1ccnc(C(C)(C)C(F)(F)F)c1 has what viability, T/C?
40.7

Entry C[C@@H](NC(=O)c1ncnc(N)c1Cl)c1ncc(C(=O)Nc2cc(C(F)(F)F)c(Cl)cn2)s1 + Cc1nc(NC(=O)N2CCCC2C(N)=O)sc1-c1ccnc(C(C)(C)C(F)(F)F)c1 has what viability, T/C?
53.3

----------
Tested on: 648629-189-R-J1-PDC spheroids with HUVEC/MSC, viability
Experiment: Anticancer human tumor 648629-189-R-J1-PDC cell line growth inhibition [PI3K];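 note: spheroids exposed to agents for seven days before reading; percent of vehicle control luminescence where 100% = DMSO treated spheroids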
Conditions: second compound 0.316 µM; first compound 0.00949 µM; stronger effect = lower value
Excerpt: Combinatorial screen of targeted agents with the PI3K inhibitors inavolisib, alpelisib, duvelisib, and copanlisib in multi-cell type tumor spheroids A high-throughput screen of multi-cell type tumor spheroids was designed to identify active combinations of targeted small molecules and PI3K pathway inhibitors. […] Compounds. […] If the clinical Cmax for an agent had not been determined, the highest concentration tested was 10 microM. […]
Each item that follows carries a reported viability, T/C.
# output: bare number, implied unit %

Solved entries:
>>> value_observed("Cn1cnc2c(F)c(Nc3ccc(Br)cc3Cl)c(C(=O)NOCCO)cc21 + CC(Nc1ccc2c(c1)OCCn1cc(N3C(=O)OCC3C(F)F)nc1-2)C(N)=O")
81.1
>>> value_observed("Cn1cnc2c(F)c(Nc3ccc(Br)cc3Cl)c(C(=O)NOCCO)cc21 + Cc1nc(NC(=O)N2CCCC2C(N)=O)sc1-c1ccnc(C(C)(C)C(F)(F)F)c1")
94.6
>>> value_observed("Cn1cnc2c(F)c(Nc3ccc(Br)cc3Cl)c(C(=O)NOCCO)cc21 + COc1c(OCCCN2CCOCC2)ccc2c3n(c(=NC(=O)c4cnc(N)nc4)nc12)CCN3")
20.6

Pending compound:
Entry Cn1cnc2c(F)c(Nc3ccc(Br)cc3Cl)c(C(=O)NOCCO)cc21 + CC(Nc1ncnc2nc[nH]c12)c1cc2cccc(Cl)c2c(=O)n1-c1ccccc1 has what viability, T/C?
95.8

----------
Test system: 648629-189-R-J1-PDC spheroids with HUVEC/MSC, viability
Test: Anticancer human tumor 648629-189-R-J1-PDC cell line growth inhibition [PI3K];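 note: spheroids exposed to agents for seven days before reading; percent of vehicle control luminescence where 100% = DMSO treated spheroids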
Details: second compound 0.0316 µM; first compound 0.1 µM; stronger effect = lower value
RECORDED_METRIC: viability, T/C (%)
# output: bare number, implied unit %

Entry C=CC(=O)N1CCN(c2nc(=O)n(-c3c(C)ccnc3C(C)C)c3nc(-c4c(O)cccc4F)c(F)cc23)C(C)C1 (stereo unspecified) + CC(Nc1ccc2c(c1)OCCn1cc(N3C(=O)OCC3C(F)F)nc1-2)C(N)=O has what viability, T/C?
108

Entry CC(Cn1ccc(-c2ccc(C#N)c(Cl)c2)n1)NC(=O)c1cc(C(C)O)[nH]n1 (stereo unspecified) + CC(Nc1ncnc2nc[nH]c12)c1cc2cccc(Cl)c2c(=O)n1-c1ccccc1 has what viability, T/C?
91.1

Entry Cn1ncc(Cl)c1-c1cc(C(=O)NC(CN)Cc2cccc(F)c2)sc1Cl (stereo unspecified) + Cc1nc(NC(=O)N2CCCC2C(N)=O)sc1-c1ccnc(C(C)(C)C(F)(F)F)c1 has what viability, T/C?
97
